# studyTarget: Itk (Homo sapiens)
# Construct: Kinases are expressed as either kinase domains or full length constructs; made in house
# Sequence (Q08881 whole entry, species assumed, the tested form may be a part): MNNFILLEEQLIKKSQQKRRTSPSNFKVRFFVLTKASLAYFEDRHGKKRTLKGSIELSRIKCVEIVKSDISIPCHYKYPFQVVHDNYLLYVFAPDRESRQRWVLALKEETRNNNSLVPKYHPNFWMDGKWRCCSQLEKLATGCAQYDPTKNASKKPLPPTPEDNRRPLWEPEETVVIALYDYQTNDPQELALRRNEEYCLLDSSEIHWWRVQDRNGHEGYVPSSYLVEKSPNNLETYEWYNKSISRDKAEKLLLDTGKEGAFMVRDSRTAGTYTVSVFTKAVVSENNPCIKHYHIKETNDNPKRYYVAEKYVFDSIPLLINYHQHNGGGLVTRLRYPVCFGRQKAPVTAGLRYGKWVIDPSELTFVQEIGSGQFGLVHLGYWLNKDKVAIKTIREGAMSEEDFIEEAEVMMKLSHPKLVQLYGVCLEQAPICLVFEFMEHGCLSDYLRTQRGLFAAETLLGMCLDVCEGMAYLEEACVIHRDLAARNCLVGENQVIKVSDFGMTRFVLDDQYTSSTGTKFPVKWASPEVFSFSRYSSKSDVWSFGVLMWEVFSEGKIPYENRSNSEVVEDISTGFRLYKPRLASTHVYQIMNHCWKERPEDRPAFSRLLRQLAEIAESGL
# protocolNotes: Kinase inhibition assay (33P transfer), Itk
# Type: biochemical
# experimentalParameters: read-out: Itk-1

cpdSmiles | IC50
O=c1[nH]c2ccccc2n1-c1ncnc(Nc2cccc3ccccc23)n1 | > 12.7 µM
CC(=O)c1ccc(Nc2ncnc(Nc3ccc4c(cnn4Cc4ccccc4)c3)n2)cc1 | 0.919 to 5.51 µM
NC(=O)Cc1ccc(Nc2ncnc(Nc3cc(-c4ccccc4)n[nH]3)n2)cc1 | 1.04 to 6.21 µM

====

# studyTarget: Zap-70 (Homo sapiens)
# Construct: Kinases are expressed as either kinase domains or full length constructs; made in house
# Sequence (P43403 whole entry, species assumed, the tested form may be a part): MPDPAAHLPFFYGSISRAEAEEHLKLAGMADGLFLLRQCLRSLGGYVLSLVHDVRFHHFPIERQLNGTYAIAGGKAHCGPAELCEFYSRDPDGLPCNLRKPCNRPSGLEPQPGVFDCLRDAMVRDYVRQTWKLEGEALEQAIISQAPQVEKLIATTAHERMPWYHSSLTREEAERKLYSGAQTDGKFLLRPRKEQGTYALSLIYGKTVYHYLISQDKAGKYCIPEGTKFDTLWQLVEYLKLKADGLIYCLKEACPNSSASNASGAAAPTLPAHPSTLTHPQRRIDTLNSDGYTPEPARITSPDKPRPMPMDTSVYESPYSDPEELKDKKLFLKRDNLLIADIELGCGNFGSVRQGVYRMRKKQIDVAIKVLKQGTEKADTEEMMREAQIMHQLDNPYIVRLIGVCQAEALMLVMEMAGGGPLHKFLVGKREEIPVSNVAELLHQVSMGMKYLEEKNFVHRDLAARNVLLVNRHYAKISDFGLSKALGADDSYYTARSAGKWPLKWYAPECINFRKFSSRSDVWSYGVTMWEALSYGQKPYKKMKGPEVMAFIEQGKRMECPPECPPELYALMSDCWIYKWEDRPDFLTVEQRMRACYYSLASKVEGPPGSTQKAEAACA
# protocolNotes: Kinase inhibition assay (33P transfer), Zap-70
# Type: biochemical
# experimentalParameters: Table 3, class symbols; read-out: Zap-1
pIC50: −log10 of the molar value.
Readings of pIC50 for the listed molecules
measurementName: pIC50

molecule | reportedResult
COc1ccc(Nc2ncnc(N(C)c3ccc(C)cc3)n2)cc1OC [Compound 799] | < 4.89
COc1cc(Nc2ncnc(Nc3cc(-c4ccc(C(N)=O)cc4)n[nH]3)n2)cc(OC)c1OC [Compound 642] | < 5.01
COCCNc1ncnc(Nc2cc(-c3ccc(C(=O)OC)cc3)n[nH]2)n1 [Compound 816] | < 4.91
CN(c1cccc(Cl)c1)c1ncnc(Nc2ccc3nn(Cc4ccccc4)cc3c2)n1 [Compound 673] | 4.99 to 5.10
COc1cc(Nc2ncnc(-c3cccnc3Nc3cc(Cl)cc(Cl)c3)n2)cc(OC)c1OC [Compound 837] | < 5.05
COc1ccc(Nc2ncnc(N(C)CCc3ccccn3)n2)cc1OC [Compound 869] | < 4.91
COc1cc(Nc2ncnc(-c3cccnc3Nc3ccc(C(F)(F)F)cc3)n2)cc(OC)c1OC [Compound 835] | < 5.04
COc1ccc(Nc2ncnc(N(C)c3ccc(OC(F)(F)F)cc3)n2)cc1OC [Compound 866] | < 4.97
COc1cc(Nc2ncnc(-c3cccnc3NC(C)c3cccc4ccccc34)n2)cc(OC)c1OC (stereo not drawn) [Compound 845] | < 5.05
CC(C)Nc1ncccc1-c1ncnc(Nc2cccc(CC(=O)O)c2)n1 [Compound 1097] | 5.02 to 5.18
OCc1cccc(Nc2ncnc(-c3cccnc3NCc3ccccc3)n2)c1 [Compound 1103] | 4.93 to 5.04
Cc1ccc2c(c1)CCCN2c1ncnc(Nc2ccc(F)c(F)c2)n1 [Compound 893] | < 4.90
COc1ccc(Nc2ncnc(N(C)c3ccccc3)n2)cc1OC [Compound 797] | < 4.87
COC(=O)c1ccc(-c2cc(Nc3ncnc(NCc4ccccc4OC)n3)[nH]n2)cc1 [Compound 815] | < 4.98
COC(=O)c1ccc(N(C)c2ncnc(Nc3ccc(OC)c(OC)c3)n2)cc1 [Compound 864] | < 4.94
COC(=O)c1cccc(Nc2ncnc(-n3c(NCc4ccccc4)nc4ccccc43)n2)c1 [Compound 1067] | < 5.00
O=C(O)CCc1cccc(Nc2ncnc(Nc3cc(-c4ccco4)[nH]n3)n2)c1 [Compound 887] | < 4.94
c1cc(Cn2ccnn2)cc(Nc2ncnc(-n3c(Nc4ccc5[nH]ccc5c4)nc4ccccc43)n2)c1 [Compound 963] | 5.05 to 5.15
COc1ccc(Nc2ncnc(N(C)c3ccc([N+](=O)[O-])cc3)n2)cc1OC [Compound 862] | < 4.93
CN(c1ccc2c(cnn2Cc2ccccc2)c1)c1ncnc(Nc2cccc(Br)c2)n1 [Compound 667] | < 5.03
CCOc1ccc(Nc2ncnc(N(C)c3cccc(Cl)c3)n2)cc1OCC [Compound 640] | < 4.95
COc1cc(Nc2ncnc(Nc3cc(-c4ccc(C(=O)N(C)C)cc4)n[nH]3)n2)cc(OC)c1OC [Compound 993] | < 5.04
CN(c1cccc(Cl)c1)c1ncnc(Nc2cc(Cl)c(Cl)c(Cl)c2)n1 [Compound 804] | < 4.96
COc1cc(Nc2ncnc(-c3cccnc3Nc3cccc(C(F)(F)F)c3)n2)cc(OC)c1OC [Compound 836] | < 5.04
CN(c1ccc2c(cnn2Cc2ccccc2)c1)c1ncnc(Nc2cccc(Cn3ccnn3)c2)n1 [Compound 677] | < 5.04
O=C(O)CNC(=O)c1ccc(Nc2ncnc(Nc3cc(-c4ccco4)[nH]n3)n2)cc1 [Compound 884] | 5.08 to 5.24
CNC(=O)c1cccc(Nc2ncnc(Nc3cc(-c4ccco4)[nH]n3)n2)c1 [Compound 826] | < 4.92
